The reported numbers originate from PubChem BioAssay (NCI).

Test system: MCF7 breast
Protocol details: NCI-60 one-dose screen, 48 h
Condition details: 10 µM unless noted
Procedure: Growth inhibition of the MCF7 human tumor cell line is measured as a screen for anti-cancer activity. Cells are grown in 96 well plates and exposed to the test compound for 48 hours. Compounds are tested at a single concentration, which is 10^-5 M for most compounds. The reported endpoint is percent growth (GI% or GIPRCNT), where numbers from 0 - 100% represent growth inhibition, and numbers from -100% - 0 represent cell death. For example, a value of 40 represents 60% growth inhibition. […]
The panel holds about 83,000 compounds, 20% with a hit somewhere; the sample as a whole holds those more often. Active and inactive are the calls of the source. Rule for the calls: active = growth percent below 10; inactive = the rest.
Outcomes: yes = active, no = inactive

| Compound | Class name |
| --- | --- |
| CC(C)NC[C@@H](C(=O)N1CCN(c2ncnc3c2[C@H](C)C[C@H]3O)CC1)c1ccc(Cl)cc1 | no |
| COC(=O)Nc1nc2ccc(C(=O)c3ccc(N(C)C4COC4)cc3)cc2[nH]1 | no |
| CCCNC(=O)c1cn2ncnc(Nc3cc(C(=O)NC4CC4)ccc3C)c2c1C | no |
| Cc1ccc2oc(=O)cc(-c3cc(-c4cc5ccccc5oc4=O)nc(N)c3C#N)c2c1 | no |
| CN1CCN(CC(=O)Nc2ccc(-c3nc4ccccc4s3)cc2)CC1 | no |
| COC(=O)N[C@@H](C)CNc1nccc(-c2cn(C(C)C)nc2-c2cc(Cl)cc(NS(C)(=O)=O)c2F)n1 | no |
| COc1cc2c(Nc3ccc(Br)cc3F)ncnc2cc1OCC1CCN(C)CC1 | no |
| Cc1cc(O)c2c(c1)C1OC(=O)CCCCCN1C1=C2C(=O)c2cccc(OC3CC(O)C(O)C(C)O3)c2C1=O (stereo not given) | no |
| c1cc[n+](Cc2c3ccccc3cc3c2ccc2ccccc23)cc1 | no |
| O=C(CNc1nnc(-c2ccc(Cl)cc2)o1)Nc1ccc(-c2nc3ccccc3s2)cc1 | no |
| CC(C)(C)CC(C)(C)Nc1c(-c2c(O)c3ccccc3oc2=O)nc2c(Cl)cc(C(F)(F)F)cn12 | no |
| CCCCCCCC12Cc3ccccc3C1=Nc1c(c3ccccc3n1C)C2=O (stereo not given) | no |
| CNC(=O)c1cc(Oc2ccc(NC(=O)Nc3ccc(Cl)c(C(F)(F)F)c3)c(F)c2)ccn1 | yes |
| CCNC(=O)C#Cc1ccc2c(C(=Nc3ccc(CN(C)C)cc3)c3ccccc3)c(O)[nH]c2c1 | no |
| COc1ccc2nc3cc(Cl)ccc3c(Nc3ccc(N(C)C)cc3)c2c1 | no |
| O=C(CNc1nc2ccccc2s1)Nc1ccc(-c2nc3ccccc3s2)cc1 | no |
| COc1cc(-c2nc(C(=O)NCC(=O)O)nn2-c2ccc(Cl)cc2)cc(OC)c1OC | no |
| CCN1/C(=C/C=C/c2n(-c3ccccc3)c3ccc(-c4nc5ccccc5s4)cc3[n+]2CC)N(c2ccccc2)c2ccc(-c3nc4ccccc4s3)cc21 | no |
| COC(=O)[C@@H](NC(=O)[C@@H](OC)[C@@H]1Cc2cc3cc(OC4CC(OC5CC(O)C(O)C(C)O5)C(O)C(C)O4)c(C)c(O)c3c(O)c2C(=O)[C@H]1OC1CC(OC2CC(OC3CC(C)(O)C(O)C(C)O3)C(O)C(C)O2)C(O)C(C)O1)C(C)C (stereo not given in full) | yes |
| O=C(c1ccc(F)c(F)c1Nc1ccc(I)cc1F)N1CC(O)([C@@H]2CCCCN2)C1 | no |
